Condition: 333.15 K; 100 kPa; Liquid; Vibrating tube method
Experimental Readout: mass density (kg/m3)
Write the answer as a number in kg/m3, unit excluded.

Given the compound CCCO , what is its reported mass density?
770.58

Further cases:
Quick one: mass density for CCCCCCCC ?
669.13

What value of measured mass density is listed for CCCCCCCCCC ?
699.17

I'd like to know its mass density. The compound in question is CCCCCCCCC
685.03
